Provenance of the data: ChEMBL document CHEMBL1155063

biological target: UniProtKB O14746; assay: Effect on human TERT expressed in BJ1 cells at 10 uM after 24 hrs by SEAP assay relative to control; conditions: BJ
RESULT TYPE: residual activity (%)

>>> df
                         chemical_structure  units  assay_result
0  CCC(=O)Nc1ccc2c(c1)C(=O)c1cc(NC(=O)CC)ccc1C2=O      %            64
1  CCCCNCCC(=O)Nc1ccc2c(c1)C(=O)c1cc(NC(=O)CCNCCCC)ccc1C2=O      %            95
2  CC(=O)Nc1ccc2c(c1)C(=O)c1cc(NC(C)=O)ccc1C2=O      %           117
3  O=C1c2ccc([N+](=O)[O-])cc2C(=O)c2cc([N+](=O)[O-])ccc21      %            60
4  CC(C)NCC(=O)Nc1ccc2c(c1)C(=O)c1cc(NC(=O)CNC(C)C)ccc1C2=O      %            55

(I) CN1CCN(CC(=O)Nc2ccc3c(c2)C(=O)c2cc(NC(=O)CN4CCN(C)CC4)ccc2C3=O)CC1
(II) O=C(CCN1CCNCC1)Nc1ccc2c(c1)C(=O)c1cc(NC(=O)CCN3CCNCC3)ccc1C2=O
(III) CCCCNCC(=O)Nc1ccc2c(c1)C(=O)c1cc(NC(=O)CNCCCC)ccc1C2=O
Lookup: # ascending order, key=residual activity List labels; respect the requested ordering.
Found: III, I, II

----------
molecular target: Telomerase reverse transcriptase (Homo sapiens); assay: Effect on human TERT expressed in H1299 cells at 100 uM after 24 hrs by SEAP assay relative to control
RESULT TYPE: residual activity (%)

>>> print(df.to_string())
                         chemical_structure                               system_name  assay_result
0  O=C(CCCCl)Nc1ccc2c(c1)C(=O)c1cc(NC(=O)CCCCl)ccc1C2=O  Telomerase reverse transcriptase (Homo sapiens)            78

(A) O=C(Nc1ccc2c(c1)C(=O)c1cc(NC(=O)c3ccccc3)ccc1C2=O)c1ccccc1
(B) O=C(CCl)Nc1ccc2c(c1)C(=O)c1cc(NC(=O)CCl)ccc1C2=O
Lookup: Kindly identify the item with the lower residual activity figure among these two: A and B Return value: the label identifying the chosen record.
Found: B
(B: 36%, A: 85%)

(I) CCNCCC(=O)Nc1ccc2c(c1)C(=O)c1cc(NC(=O)CCNCC)ccc1C2=O
(II) O=C(CN1CCCCC1)Nc1ccc2c(c1)C(=O)c1cc(NC(=O)CN3CCCCC3)ccc1C2=O
Lookup: Higher residual activity: I or II ? Answer = label.
Found: II

(P) O=C(CCN1CCCC1)Nc1ccc2c(c1)C(=O)c1cc(NC(=O)CCN3CCCC3)ccc1C2=O
(Q) O=C(CN1CCNCC1)Nc1ccc2c(c1)C(=O)c1cc(NC(=O)CN3CCNCC3)ccc1C2=O
Lookup: Among P and Q , whose measured residual activity is the smaller figure? Provide the label of your selected option as the answer.
Found: P
(P: 17%, Q: 60%)

----------
assay: Cytotoxicity against human H1299 cells at 100 uM after 48 hrs by MTT assay realtive to control; type: functional; conditions: NCI-H1299, 48 h
Reported viability at 100 µM is given for each of the following molecules.
// return numeric value only (unit: %, not printed)

In [3]: df
Out[3]:
                         chemical_structure          result_type  units  assay_result
0  CCCNCCC(=O)Nc1ccc2c(c1)C(=O)c1cc(NC(=O)CCNCCC)ccc1C2=O  viability at 100 µM      %            13

// next item, viability at 100 µM requested
Lookup: May I ask what viability at 100 µM has been recorded for CCCC(=O)Nc1ccc2c(c1)C(=O)c1cc(NC(=O)CCC)ccc1C2=O ?
Found: 40

----------
target: Telomerase reverse transcriptase (Homo sapiens, UniProt O14746); test: Effect on human TERT expressed in BJ1 cells at 100 uM after 24 hrs by SEAP assay relative to control; conditions: BJ
Sequence (O14746 whole entry): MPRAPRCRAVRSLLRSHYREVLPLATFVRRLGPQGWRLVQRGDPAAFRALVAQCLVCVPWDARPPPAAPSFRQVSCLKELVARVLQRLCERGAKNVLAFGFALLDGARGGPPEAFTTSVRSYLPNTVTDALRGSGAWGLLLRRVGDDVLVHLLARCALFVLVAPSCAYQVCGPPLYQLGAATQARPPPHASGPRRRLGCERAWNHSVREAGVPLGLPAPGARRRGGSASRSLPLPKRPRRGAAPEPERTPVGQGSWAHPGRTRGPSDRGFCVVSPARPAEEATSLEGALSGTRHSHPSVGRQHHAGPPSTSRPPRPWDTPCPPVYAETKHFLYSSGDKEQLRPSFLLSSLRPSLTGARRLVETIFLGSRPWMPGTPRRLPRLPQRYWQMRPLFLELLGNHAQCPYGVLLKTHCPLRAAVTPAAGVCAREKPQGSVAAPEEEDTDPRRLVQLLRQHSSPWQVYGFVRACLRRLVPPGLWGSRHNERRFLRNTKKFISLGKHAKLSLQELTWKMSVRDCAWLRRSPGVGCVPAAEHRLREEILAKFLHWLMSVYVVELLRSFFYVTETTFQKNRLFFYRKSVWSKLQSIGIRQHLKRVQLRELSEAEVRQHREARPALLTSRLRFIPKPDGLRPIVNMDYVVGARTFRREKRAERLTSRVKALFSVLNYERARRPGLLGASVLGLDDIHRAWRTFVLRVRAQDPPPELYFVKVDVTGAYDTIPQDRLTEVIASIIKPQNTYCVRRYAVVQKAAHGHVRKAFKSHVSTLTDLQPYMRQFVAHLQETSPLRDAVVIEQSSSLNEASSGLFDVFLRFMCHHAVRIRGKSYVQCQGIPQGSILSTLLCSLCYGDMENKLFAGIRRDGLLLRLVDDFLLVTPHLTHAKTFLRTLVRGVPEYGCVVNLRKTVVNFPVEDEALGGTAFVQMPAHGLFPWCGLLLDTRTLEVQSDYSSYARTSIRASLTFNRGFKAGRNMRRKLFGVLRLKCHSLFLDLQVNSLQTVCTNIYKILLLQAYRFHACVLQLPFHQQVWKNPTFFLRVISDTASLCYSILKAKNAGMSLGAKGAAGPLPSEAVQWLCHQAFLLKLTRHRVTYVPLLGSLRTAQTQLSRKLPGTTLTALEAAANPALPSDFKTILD
RESULT TYPE: residual activity (%)

                         chemical_structure  assay_result
0  CCNCCC(=O)Nc1ccc2c(c1)C(=O)c1cc(NC(=O)CCNCC)ccc1C2=O            97

(I) CCNCC(=O)Nc1ccc2c(c1)C(=O)c1cc(NC(=O)CNCC)ccc1C2=O
(II) CCCCNCCC(=O)Nc1ccc2c(c1)C(=O)c1cc(NC(=O)CCNCCCC)ccc1C2=O
Lookup: // returns I or II , whichever has the lower residual activity Let me know the label of the one you choose.
Found: I
(I: 17%, II: 111%)

----------
experiment: Cytotoxicity against human TERT immortalized BJ1 cells at 10 uM after 48 hrs by MTT assay relative to control; assay type: cell-based, BJ
RESULT TYPE: viability at 48 h, 10 µM (%)
Please respond with the number in % and leave the unit unwritten.

>>> df
                         chemical_structure  units  assay_result
0  O=C1c2ccc(NC(=O)C3CCCC3)cc2C(=O)c2cc(NC(=O)C3CCCC3)ccc21      %            68
1  CN1CCN(CC(=O)Nc2ccc3c(c2)C(=O)c2cc(NC(=O)CN4CCN(C)CC4)ccc2C3=O)CC1      %            69
2  O=C(CCN1CCCC1)Nc1ccc2c(c1)C(=O)c1cc(NC(=O)CCN3CCCC3)ccc1C2=O      %            68

Could you now look at the following molecule, please?
Lookup: Record request: viability at 48 h, 10 µM value, item CCCC(=O)Nc1ccc2c(c1)C(=O)c1cc(NC(=O)CCC)ccc1C2=O
Found: 51

----------
biological target: Telomerase reverse transcriptase (Homo sapiens); test: Effect on human TERT expressed in BJ1 cells at 10 uM after 24 hrs by SEAP assay relative to control; details: BJ
RESULT TYPE: residual activity (%)

                         chemical_structure  assay_result
0  O=C1c2ccc(NC(=O)C3CCCC3)cc2C(=O)c2cc(NC(=O)C3CCCC3)ccc21           130

(A) O=C(CCN1CCCC1)Nc1ccc2c(c1)C(=O)c1cc(NC(=O)CCN3CCCC3)ccc1C2=O
(B) O=C(CN1CCCCC1)Nc1ccc2c(c1)C(=O)c1cc(NC(=O)CN3CCCCC3)ccc1C2=O
Lookup: Given A and B , report the one with the higher recorded residual activity. Use the label to indicate which entry you chose.
Found: B

----------
We begin with a simple list: items and their reported viability at 100 µM.
test: Cytotoxicity against human H1299 cells at 100 uM after 48 hrs by MTT assay realtive to control; format: functional; details: NCI-H1299, 48 h
Record the value in %, omitting the unit from your answer.

>>> df
                         chemical_structure          result_type  assay_result
0  CCC(=O)Nc1ccc2c(c1)C(=O)c1cc(NC(=O)CC)ccc1C2=O  viability at 100 µM            35

Lookup: Look up viability at 100 µM: O=C(CCN1CCCCC1)Nc1ccc2c(c1)C(=O)c1cc(NC(=O)CCN3CCCCC3)ccc1C2=O
Found: 18

Lookup: Value lookup for viability at 100 µM; key = CCN(CC)CC(=O)Nc1ccc2c(c1)C(=O)c1cc(NC(=O)CN(CC)CC)ccc1C2=O
Found: 25

Lookup: Could you share which viability at 100 µM value was measured for O=C(CN1CCCC1)Nc1ccc2c(c1)C(=O)c1cc(NC(=O)CN3CCCC3)ccc1C2=O ?
Found: 23

Lookup: Please look up its viability at 100 µM: O=C(CCCl)Nc1ccc2c(c1)C(=O)c1cc(NC(=O)CCCl)ccc1C2=O
Found: 29

Lookup: Find the recorded viability at 100 µM belonging to CC(C)NCC(=O)Nc1ccc2c(c1)C(=O)c1cc(NC(=O)CNC(C)C)ccc1C2=O and report it.
Found: 6

Lookup: viability at 100 µM lookup needed for O=C(CN1CCCCC1)Nc1ccc2c(c1)C(=O)c1cc(NC(=O)CN3CCCCC3)ccc1C2=O , thanks.
Found: 35

Lookup: Quick one: viability at 100 µM of CN(C)CCC(=O)Nc1ccc2c(c1)C(=O)c1cc(NC(=O)CCN(C)C)ccc1C2=O ?
Found: 1

Lookup: Find the recorded viability at 100 µM belonging to O=C1c2ccc(NC(=O)C3CCCC3)cc2C(=O)c2cc(NC(=O)C3CCCC3)ccc21 and report it.
Found: 42

Lookup: # get_value(readout='viability at 100 µM', item= O=C1c2ccc(NC(=O)C3CC3)cc2C(=O)c2cc(NC(=O)C3CC3)ccc21 )
Found: 43

Lookup: Return reported viability at 100 µM; argument: O=C(Cc1ccccc1)Nc1ccc2c(c1)C(=O)c1cc(NC(=O)Cc3ccccc3)ccc1C2=O
Found: 75

Lookup: Need viability at 100 µM of CCCNCC(=O)Nc1ccc2c(c1)C(=O)c1cc(NC(=O)CNCCC)ccc1C2=O , thanks.
Found: 14

Lookup: Can you look up the measured viability at 100 µM of CCN(CC)CCC(=O)Nc1ccc2c(c1)C(=O)c1cc(NC(=O)CCN(CC)CC)ccc1C2=O for me?
Found: 1

Lookup: Name the reported viability at 100 µM value associated with the compound CC(=O)Nc1ccc2c(c1)C(=O)c1cc(NC(C)=O)ccc1C2=O
Found: 55
